Entries and their self-cleavage values follow.
B1: Twister Ribozyme (parent)
chain: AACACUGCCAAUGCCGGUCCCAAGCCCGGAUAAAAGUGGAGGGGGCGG

Variants of: B1
Procedure summary: self-cleavage, relative activity (ratio to wild type); higher = more cleavage; co-transcriptional

Prompt line: Need self-cleavage, item A23G A32U
Response line: 0.393

Prompt line: Ok, now A23C A40G
Response line: 0.128
